Quick list: TGI per entry.
- Test system: HOP-62 NSCLC
- measurement.notes: NCI tumour cell line growth inhibition, 48 h

>  <compound>
Nc1nc2[nH]cc(CCc3ccc(C(=O)N[C@@H](CCC(=O)O)C(=O)O)cc3)c2c(=O)[nH]1

>  <measured.target>
HOP-62 NSCLC

>  <TGI>
> 100 µM

$$$$
>  <compound>
O=S1C(=c2ccc(=C3Sc4ccccc4S3)cc2)Sc2ccccc21 (stereo not given)

>  <measured.target>
HOP-62 NSCLC

>  <TGI>
31.6 µM

$$$$
>  <compound>
COc1ccc2ncnc(Nc3ccc(OCc4ccccc4)cc3)c2c1

>  <measured.target>
HOP-62 NSCLC

>  <TGI>
> 25 µM

$$$$
>  <compound>
C[C@@H]1CC[C@H]2C(C)(C)[C@H]3C[C@@]12CC[C@@]3(C)O

>  <measured.target>
HOP-62 NSCLC

>  <TGI>
> 100 µM

$$$$
>  <compound>
CN1CCN(c2ccc(Nc3ncc(Cl)c(NC[C@@H]4CCCO4)n3)cc2)CC1

>  <measured.target>
HOP-62 NSCLC

>  <TGI>
4.61 µM

$$$$

----------
- Tested on: SF-295 CNS
- measurement.notes: NCI tumour cell line growth inhibition, 48 h

>  <compound>
O=C1c2ccccc2-n2nnnc2C2CSCN12 (stereo unspecified)

>  <TGI>
> 100 µM

$$$$
>  <compound>
C[C@@]1(O)CC[C@]2(C)C3CCCC3[C@H]12 (stereo partly specified)

>  <TGI>
> 100 µM

$$$$
>  <compound>
N#C/C(N)=C(\C#N)NC=NCCO

>  <TGI>
> 100 µM

$$$$
>  <compound>
COc1ccc2oc3c(C)cc4c(OC)nnc(OC)c4c3c2c1

>  <TGI>
> 100 µM

$$$$
>  <compound>
COC(=O)CC(C)(NS(=O)c1ccc(C)cc1)c1ccccc1 (stereo unspecified)

>  <TGI>
> 100 µM

$$$$
>  <compound>
CC(C)[C@@H]1NC(=O)[C@]2(C)CSC(=N2)c2ccnc(c2)CNC(=O)C[C@@H](/C=C/CCS)OC1=O

>  <TGI>
0.322 µM

$$$$
>  <compound>
O=C(C(=O)n1ccc2ccccc21)n1ccc2ccccc21

>  <TGI>
> 100 µM

$$$$
>  <compound>
CC1(C)[C@@H](Cn2cc(I)c(=O)[nH]c2=O)CC[C@@]1(C)CO

>  <TGI>
> 100 µM

$$$$
>  <compound>
CCNC(=O)c1ccc(C)c(N=NN(C)C)c1

>  <TGI>
> 100 µM

$$$$
>  <compound>
O=C1OC(c2ccccc2)=N/C1=C\c1ccc([N+](=O)[O-])cc1

>  <TGI>
> 100 µM

$$$$
>  <compound>
CN(C)C=Nc1nc(=O)n(C2CCC(CO)O2)cc1F (stereo unspecified)

>  <TGI>
> 100 µM

$$$$
>  <compound>
CC(=O)[O-].CC(=O)[O-].O=C(N/N=C/c1cc(Cl)cc(Cl)c1O)c1ccncc1.[Cu+2]

>  <TGI>
> 100 µM

$$$$
>  <compound>
COC(=O)[C@]1(C)CCC[C@@]2(C)C1CC[C@@]13C=C(C(C)C)[C@@H](CC1=O)CC23 (stereo partly specified)

>  <TGI>
68.3 µM

$$$$
>  <compound>
CC(=O)OC1(C)N=NC2(CCCCC2)O1 (stereo unspecified)

>  <TGI>
> 100 µM

$$$$
>  <compound>
CCOC(=O)C12OC(OCC)(CC1(OCC)OCC)C1(CC1)C2=O (stereo unspecified)

>  <TGI>
> 100 µM

$$$$
>  <compound>
NC(Cc1ccccc1)C(=O)NC(Cc1ccccc1)NC(=O)C(Cc1c[nH]c2ccccc12)C(=O)O (stereo unspecified)

>  <TGI>
> 100 µM

$$$$
>  <compound>
[O-][Cl+3]([O-])([O-])[O-].[O]=[Ru]=[O].c1ccc(-c2ccccn2)nc1.c1ccc(-c2ccccn2)nc1

>  <TGI>
> 100 µM

$$$$
>  <compound>
COc1ccc(C(SCCO)(c2ccccc2)c2ccc(OC)cc2)cc1

>  <TGI>
19 µM

$$$$
>  <compound>
COc1cc2c(/C=C3/C(=O)Nc4cccc(Cl)c43)c(Cl)[nH]c2cc1C

>  <TGI>
4.21 µM

$$$$
>  <compound>
CCC(C)SC1SCC2C(=O)N(C)C3(CC3C)C(=O)OCC(NC(=O)c3nc4ccccc4cc3O)C(=O)NC(C)C(=O)N(C)C1C(=O)N(C)C1(CC1C)C(=O)OCC(NC(=O)c1nc3ccccc3cc1O)C(=O)NC(C)C(=O)N2C (stereo unspecified)

>  <TGI>
0.00153 µM

$$$$
>  <compound>
O=C(NC1CCCCC1)NS(=O)(=O)c1ccc(N2N=C3c4ccccc4CC3C2c2ccc(Cl)cc2)cc1 (stereo unspecified)

>  <TGI>
43.9 µM

$$$$
>  <compound>
O=C(O)C1C2c3ccccc3C(c3ccccc32)C1C(=O)NCC1CC1 (stereo unspecified)

>  <TGI>
> 100 µM

$$$$
>  <compound>
COCOC1/C=C/CCCCC(=O)C(C)C#CC1 (stereo unspecified)

>  <TGI>
31.3 µM

$$$$
>  <compound>
c1ccc(-c2n(Cc3ccc4ccccc4n3)cc[n+]2Cc2ccc3ccccc3c2)cc1

>  <TGI>
4.73 µM

$$$$
>  <compound>
Cn1cc(-c2cc3c(N4CCN(c5ncc([C@@](C)(N)c6ccc(F)cc6)cn5)CC4)ncnn3c2)cn1

>  <TGI>
> 100 µM

$$$$
>  <compound>
C[C@]12[C@@H]3CC[C@H]1[C@@H](O)C(=O)N2CC3

>  <TGI>
> 100 µM

$$$$
>  <compound>
COC(=O)c1ccc(Cc2cc(Cc3ccc(C(=O)OC)cc3)cc(Cc3ccc(C(=O)OC)cc3)c2)cc1

>  <TGI>
> 25 µM

$$$$
>  <compound>
N#CC(C(=O)CCC(=O)Nc1ccc(Cl)c(Cl)c1)c1ccccc1 (stereo unspecified)

>  <TGI>
> 100 µM

$$$$
>  <compound>
Oc1ccc(NCn2c(=S)sc3ccccc32)cc1

>  <TGI>
> 100 µM

$$$$
>  <compound>
CC(=O)OCCOCNC(=S)N/N=C/c1ccc([N+](=O)[O-])o1

>  <TGI>
> 100 µM

$$$$
>  <compound>
C=C(C)C(=O)O[C@@H]1C[C@@]2(C)O[C@@H]2C[C@H](O)/C(C)=C/[C@H]2OC(=O)C(=C)[C@@H]21

>  <TGI>
> 100 µM

$$$$
>  <compound>
COC(=O)/C=C/c1cc(OC(C)=O)c2c(c1)[C@@H](C(=O)OC)[C@H](c1ccc(OC(C)=O)c(OC(C)=O)c1)O2

>  <TGI>
11.4 µM

$$$$
>  <compound>
Cc1ccc(-c2nc(N3CCNCC3)c3oc(-c4ccc(C)cc4)nc3n2)cc1

>  <TGI>
52.6 µM

$$$$
>  <compound>
COc1ccc2ncnc(Nc3ccc(OCc4ccccc4)cc3)c2c1

>  <TGI>
> 18.7 µM

$$$$
>  <compound>
Cc1[nH]c(=O)nc2sc(=NC3CCCCC3)n(C3CCCCC3)c(=O)c12

>  <TGI>
> 100 µM

$$$$
>  <compound>
COc1ccc(C(C)NNC(=O)c2ccncc2)cc1OC (stereo unspecified)

>  <TGI>
> 100 µM

$$$$
>  <compound>
CC#Cc1ccc(-c2ccccc2)s1

>  <TGI>
> 100 µM

$$$$
>  <compound>
C/C(=N\NC(N)=S)c1ccc2c(c1)Sc1ccccc1O2

>  <TGI>
> 100 µM

$$$$
>  <compound>
CN(C)C(=S)/N=c1\ssc(=S)n1C1CCCCC1

>  <TGI>
> 100 µM

$$$$
>  <compound>
O=C(CC1Sc2ccccc2NC1=O)Nc1ccccc1[N+](=O)[O-] (stereo unspecified)

>  <TGI>
> 100 µM

$$$$
>  <compound>
c1ccc(Nc2ncc(-c3ccccc3)o2)cc1

>  <TGI>
> 25 µM

$$$$

----------
- Tested on: SF-268 CNS
- measurement.notes: NCI tumour cell line growth inhibition, 48 h; in the data active = GI50 below about 0.43 µM; inactive = the rest
Outcome codes: yes for active, no for inactive

>  <compound>
[O-][Cl+3]([O-])([O-])[O-].[O]=[Ru]=[O].c1ccc(-c2ccccn2)nc1.c1ccc(-c2ccccn2)nc1

>  <class.assignment>
no

$$$$
>  <compound>
O=C1OCC2=C1C(c1cccc(Br)c1)c1cc3c(cc1N2CCO)OCCO3 (stereo not given)

>  <class.assignment>
yes

$$$$
>  <compound>
C#Cc1cccc(Nc2nc3cc([N+](=O)[O-])ccc3nc2Nc2ccc(O)cc2)c1

>  <class.assignment>
no

$$$$
>  <compound>
COC(=O)/C=C/c1cc(OC(C)=O)c2c(c1)[C@@H](C(=O)OC)[C@H](c1ccc(OC(C)=O)c(OC(C)=O)c1)O2

>  <class.assignment>
yes

$$$$
>  <compound>
COc1ccc(CN2C(=O)C(Cl)=C(Nc3cccc(C(F)(F)F)c3)C2=O)cc1

>  <class.assignment>
no

$$$$
>  <compound>
NC(=S)N/N=C1\c2cc(Cl)ccc2-c2c1cc(Cl)cc2[N+](=O)[O-]

>  <class.assignment>
no

$$$$
>  <compound>
CN1CCN(C(=O)COc2ccc(C34CC5CC(CC(C5)C3)C4)cc2)CC1

>  <class.assignment>
no

$$$$
>  <compound>
CC(=O)N[C@@H](Cc1ccc(OP(=O)(O)O)cc1)C(=O)N[C@H]1CCC(=O)N2CCC[C@@H](C(=O)Nc3cccc4ccccc34)N2C1=O

>  <class.assignment>
no

$$$$
>  <compound>
O=C(Nc1nn2c(-c3cc(C(F)(F)F)cc(C(F)(F)F)c3)nnc2s1)C1CCCC1

>  <class.assignment>
no

$$$$
>  <compound>
COc1ccccc1NC(=O)c1cc2cc(Br)ccc2cc1O

>  <class.assignment>
no

$$$$
